- protocol-summary: chemical genetic growth profiling, strain panel (AID 1159580);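 further: tested at 20 µM; growth read once vehicle control cultures reached saturation at 30 °C; 1 = growth at the plate median or of vehicle wells; lower values mean less growth of the strain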
- condition-set: S. cerevisiae deletion strains, growth OD, locus YBR231C, strain swc5
The whole screen tested about 5,500 compounds, of which about 2,000 (36%) were called active. Inconclusive results (about 18%) are left out. No stated cut-off is given here; in the data, active means normalized growth mostly below about 0.91 (no sharp cut-off); inconclusive means no clear call, values can overlap the other calls; inactive means mostly above about 0.92. The list shows a part of the results.
Outcome (select one): true (1) = active, false (0) = inactive

Outcome logged for "CCCN(CCC)c1c([N+](=O)[O-])cc(C(F)(F)F)cc1[N+](=O)[O-]" in this assay:
false (0)

Outcome logged for "CCCCN(CC)c1c([N+](=O)[O-])cc(C(F)(F)F)cc1[N+](=O)[O-]" in this assay:
false (0)

Outcome logged for "Cn1c(=O)c2c(ncn2C)n(C)c1=O" in this assay:
false (0)

Outcome logged for CC1CC(OC(=O)c2ccccc2O)CC(C)(C)C1 (configuration not stated) in this assay:
false (0)

Outcome logged for "O=C(O)CC[N+](=O)[O-]" in this assay:
false (0)

Outcome logged for "O=C1C=CC(=O)c2c(O)cccc21" in this assay:
true (1)

Outcome logged for CC(=O)NC1C(O)OC(COS(=O)(=O)O)C(OC2OC(C(=O)O)C(OC3OC(CO)C(OC4OC(C(=O)O)C(O)C(O)C4OS(=O)(=O)O)C(OS(=O)(=O)O)C3NS(=O)(=O)O)C(O)C2OS(=O)(=O)O)C1O (configuration not stated) in this assay:
false (0)

Outcome logged for "CCC[C@@H]1C[C@@H](C(=O)N[C@H]([C@H]2O[C@H](SC)[C@H](O)[C@@H](O)[C@H]2O)[C@H](C)O)N(C)C1" in this assay:
false (0)

Outcome logged for "CC(=O)c1ccc[nH]1" in this assay:
false (0)

Outcome logged for "CNC(=O)Oc1ccccc1OC(C)C" in this assay:
false (0)

Outcome logged for "O=C(/C=C/c1ccccc1)c1ccc(O[C@@H]2O[C@H](CO)[C@@H](O)[C@H](O)[C@H]2O)cc1O" in this assay:
true (1)

Outcome logged for "COc1ccc(CC(=O)c2ccc(O)cc2O)cc1" in this assay:
false (0)

Outcome logged for O=C(c1ccccc1)c1ccc2n1CCC2C(=O)O (configuration not stated) in this assay:
false (0)

Outcome logged for "CCCCCC/C=C\CCCCCCCc1cccc(O)c1C(=O)O" in this assay:
false (0)

Outcome logged for "O=C(O)[C@H]1/C(=C/CO)O[C@@H]2CC(=O)N21" in this assay:
false (0)

Outcome logged for NC(Cc1ccc(Cl)cc1)C(=O)O (configuration not stated) in this assay:
false (0)

Outcome logged for COC1=CC23CCCN2CCc2cc4c(cc2C3C1O)OCO4 (configuration not stated) in this assay:
false (0)

Outcome logged for "CN1CCN(C2=Nc3cc(Cl)ccc3Nc3ccccc32)CC1" in this assay:
false (0)

Outcome logged for "Cn1c(=O)[nH]c2nc[nH]c2c1=O" in this assay:
false (0)

Outcome logged for "O=c1c(O)c(-c2ccccc2)oc2cc(O)ccc12" in this assay:
true (1)

Outcome logged for CC(=O)OC1CCC2(O)CC1(C)CCC1C2CC1(C)C (configuration not stated) in this assay:
false (0)

Outcome logged for "CN1CCC[C@H]1c1cccnc1" in this assay:
false (0)

Outcome logged for CC(=O)O[C@@H]1C2CC[C@@H]3C1(C[C@@H](O)[C@@]1(O)[C@@H](C[C@H](O)C1(C)C)[C@]3(C)O)C[C@@]2(C)O (some centres not stated) in this assay:
false (0)

Outcome logged for "COc1ccc([C@@H](C)C(=O)c2ccc(O)cc2O)cc1" in this assay:
false (0)

Outcome logged for "CC(=O)CCCCn1c(=O)c2c(ncn2C)n(C)c1=O" in this assay:
false (0)

Outcome logged for CC1(C)CC23C(=O)CCC(O)C2(C)CCC13 (configuration not stated) in this assay:
false (0)

Outcome logged for "C=CC[C@@H]1/C=C(\C)C[C@H](C)C[C@H](OC)[C@H]2O[C@@](O)(C(=O)C(=O)N3CCCC[C@H]3C(=O)O[C@H](/C(C)=C/[C@@H]3CC[C@@H](O)[C@H](OC)C3)[C@H](C)[C@@H](O)CC1=O)[C@H](C)C[C@@H]2OC" in this assay:
false (0)

Outcome logged for "O=C(/C=C/c1ccc(O)cc1)c1ccccc1O" in this assay:
true (1)

Outcome logged for "CC(=O)NS(=O)(=O)c1ccc(N)cc1" in this assay:
false (0)

Outcome logged for CCC1(C2=NCCN2)Cc2ccccc2O1 (configuration not stated) in this assay:
false (0)

Outcome logged for "CON" in this assay:
false (0)

Outcome logged for ClC1C(Cl)C(Cl)C(Cl)C(Cl)C1Cl (configuration not stated) in this assay:
false (0)
